From: paper PMC12834051

- protocol-description: Thermodynamic solubility in ultrapure water
- Type: physicochemical
- condition: ultrapure water, 25 °C, pH 6.24, water, thermodynamic from solid
Counter-ions that a name gives are not always drawn.
experimental-readout: solubility thermodynamic (µg/mL)
Give bare numbers, in µg/mL.

Input line: What solubility thermodynamic value was documented for this molecule, COc1cc(CCNCc2ccccc2O)c(OC)cc1C#N [1·HCl, 25CN-NBOH·HCl] ?
Output line: 8500
